Data credit: patent US5716797A

Molecular target: creatine kinase (CK) in human serum (Homo sapiens, UniProt P06732)
Construct: Five fresh human serum samples were used; from tissue; host or cells: fresh human serum
Sequence (P06732 whole entry): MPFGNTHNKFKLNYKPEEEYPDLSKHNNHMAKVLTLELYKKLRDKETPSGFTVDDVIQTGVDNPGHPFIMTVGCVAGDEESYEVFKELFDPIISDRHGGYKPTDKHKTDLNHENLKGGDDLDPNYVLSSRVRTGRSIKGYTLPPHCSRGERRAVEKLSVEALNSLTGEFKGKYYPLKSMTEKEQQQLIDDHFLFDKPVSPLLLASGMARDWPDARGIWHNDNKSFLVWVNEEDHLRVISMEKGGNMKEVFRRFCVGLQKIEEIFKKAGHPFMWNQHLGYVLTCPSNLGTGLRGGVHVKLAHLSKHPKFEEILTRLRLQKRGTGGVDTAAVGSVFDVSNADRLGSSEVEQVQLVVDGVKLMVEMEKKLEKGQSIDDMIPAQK
Assay: Inhibitory effect of oxidized products of SH compounds on CK activity (HK/G6PDH UV method, NAC 26 mM as reactivator)
Assay type: biochemical
Conditions: Sample 2; 5 mM SH compound oxidized product, NAC 26 mM, 37° C.
measured.attribute: CK activity value (IU/l.)

As a guide, the following entries are already answered.
> print(dat)
                                   molecule                              study.system  observed.result
1       OCC(O)CSSCC(O)CO (stereo not shown)  creatine kinase (CK) in human serum (Homo sapiens, UniProt P06732)              422
2          O=c1ccnc(SSc2nccc(=O)[nH]2)[nH]1  creatine kinase (CK) in human serum (Homo sapiens, UniProt P06732)              407
3     O[C@@H]1CSSC[C@H]1O (relative stereo)  creatine kinase (CK) in human serum (Homo sapiens, UniProt P06732)              407
4            Nc1cc(O)nc(SSc2nc(N)cc(O)n2)n1  creatine kinase (CK) in human serum (Homo sapiens, UniProt P06732)              407
5  OC[C@H]1O[C@@H](SS[C@@H]2O[C@H](CO)[C@@H](O)[C@H](O)[C@H]2O)[C@H](O)[C@@H](O)[C@@H]1O  creatine kinase (CK) in human serum (Homo sapiens, UniProt P06732)              388
6                                  OCCSSCCO  creatine kinase (CK) in human serum (Homo sapiens, UniProt P06732)              427

A. CC(=O)N[C@@H](CSSC[C@H](NC(C)=O)C(=O)O)C(=O)O
B. Nc1nc(SSc2nc(N)nc3c2ncn3[C@@H]2O[C@H](CO)[C@@H](O)[C@H]2O)c2ncn([C@@H]3O[C@H](CO)[C@@H](O)[C@H]3O)c2n1
query: Hey, between A and B which has a smaller measured CK activity value? Answer by quoting the chosen item's label.
result: B
(B: 1 IU/l., A: 342 IU/l.)

====

Test system: creatine kinase (CK) in human serum
Assay: CK activity measured with enzyme solutions containing SH compounds as CK reactivator, fresh and after 1 month of storage (Example 1 / Comparative Example 1)
Type: biochemical
Conditions: Sample 4; enzyme solution stored at 10° C. for 1 month; TG 100, 2ME 26, 2MES 26, NAC 26, L-cysteine 6.5, GSH 12, TDG 5, DTT 6.5 mM
Listed here are compounds together with their documented CK activity value.
The figure you give is taken to be in IU/l; do not add the unit.

As a guide, the following entries are already answered.
> print(dat)
                                   compound  measured.attribute  observed.result
1  O=S(=O)(O)CCS [2MES, 2-mercaptoethanesulfonic acid]   CK activity value               55
2  OCC(O)CS (stereo not drawn) [TG, thioglycerol]   CK activity value               57
3             OCCS [2ME, 2-mercaptoethanol]   CK activity value               59

The recorded CK activity value for entry CC(=O)N[C@@H](CS)C(=O)O [NAC, N-acetylcysteine] equals 55

The recorded CK activity value for entry O.O.OC[C@H]1O[C@@H](S)[C@H](O)[C@@H](O)[C@@H]1O.[Na].[Na] [TDG] equals 0

The recorded CK activity value for entry N[C@@H](CS)C(=O)O [L-cysteine] equals 42
